Listed compounds paired with reported Papp B→A at 2 h, 10 µM
# assayText: Caco-2 membrane permeability and transport
# Assay type: in vitro ADME
# details: human, pH 7.4; Caco-2, basal to apical, 10 µM, 2 h
# Method: The membrane permeability and transport properties of the compound of the present disclosure were determined using the following method. • I. Experimental materials and instruments • 1. Caco-2 cells (ATCC) • 2. HEPES (Solarbio 804D049), penicillin/streptomycin (Solarbio 20200109), Trypsin/EDTA (Solarbio), and PBS (Solarbio 20200620) • 3. […] Infinite 200 PRO microplate reader (Tecan, Infinite M200PRO) • 10. […]
Give just the number in ×10⁻⁶ cm/s; leave the unit off.

[[record]]
compound = "[2H][C@](C)(Nc1nc(C)nc2c(N3CCOCC3)c(=O)n(C3(CF)CC3)cc12)c1cccc(C(F)F)c1F [Example 55]"
unittag = "×10⁻⁶ cm/s"
quantitativeresult = 24.3


In the following, a different compound is considered.
Which Papp B→A at 2 h, 10 µM is reported for this compound? Cc1nc(N[C@H](C)c2cccc(C(F)F)c2F)c2cn(C3(CF)CC3)c(=O)c(N3CCOC[C@@H]3C)c2n1 [Example 40] 27.6

====

# assayText: Pharmacokinetics in mice after single intragastric or intravenous administration
# Assay type: in vivo
# details: female, BALB/c nude, mouse, plasma, po, single intragastric administration, 50 mg/kg
recordedEndpoint: half-life (h)
Provide the reading as a plain figure in h.

I'd like to know its half-life. The compound in question is COc1c(=O)n(C2(CF)CC2)cc2c(N[C@H](C)c3cccc(C(F)F)c3F)nc(C)nc12 [Example 1] 1

====

# reported IC50; entries follow
# System: p-ERK pathway in H358 cells
# assayText: p-ERK pathway inhibition in H358 cells (Advanced phospho-ERK (Thr202/Tyr204) cellular kit, HTRF)
# Assay type: cell-based
# details: Homo sapiens, NCI-H358, 1 h compound incubation
Could you give me the number in nM? Just the number is fine.

Some entries whose results are on file:
[[record]]
compound = "COc1c(=O)n(C2(CF)CC2)cc2c(N[C@H](C)c3cccc([N+](=O)[O-])c3C)nc(C)nc12 [Example 29]"
assaytarget = "p-ERK pathway in H358 cells"
quantitativeresult = 71

[[record]]
compound = "Cc1nc(N[C@H](C)c2cccc(C#N)c2C)c2cn(C3(CF)CC3)c(=O)c(N3CCOCC3(C)C)c2n1 [Example 171]"
assaytarget = "p-ERK pathway in H358 cells"
quantitativeresult = 75.6

[[record]]
compound = "Cc1nc(N[C@H](C)c2cccc(C(F)F)c2F)c2cn(C3(CF)CC3)c(=O)c(N3CCC(C)(O)C3)c2n1 (some centres unmarked) [Example 62]"
assaytarget = "p-ERK pathway in H358 cells"
quantitativeresult = 133

[[record]]
compound = "Cc1nc(N[C@H](C)c2cccc(C(F)F)c2F)c2cn(C3(CF)CC3)c(=O)c(-c3cnn4c3COCC4)c2n1 [Example 176]"
assaytarget = "p-ERK pathway in H358 cells"
quantitativeresult = 126

[[record]]
compound = "Cc1nc(N[C@H](C)c2cccc(C#N)c2C)c2cn(N3CCOCC3)c(=O)c(OC3(C)CC3)c2n1 [Example 91]"
assaytarget = "p-ERK pathway in H358 cells"
quantitativeresult = 133


// IC50 lookup, key: Cc1nc(N[C@H](C)c2cccc(C(F)F)c2F)c2cn(C3(CF)CC3)c(=O)c(N3CCc4cn(C)nc4C3)c2n1 [Example 98] 55.6

Which IC50 is listed for Cc1nc(N[C@H](C)c2cccc(C(F)F)c2F)c2cn(C3(CF)CC3)c(=O)c(N3CCC(N(C)C)CC3)c2n1 [Example 158] ? 145

Fill in the blank: the reported IC50 of Cc1nc(N[C@H](C)c2cccc(C(F)F)c2F)c2cn(C3(CF)CC3)c(=O)c(N3CCC4(CC3)COC4)c2n1 [Example 151] is ____. 41.7

Any idea what IC50 was measured for [2H]C([2H])([2H])[C@@H](Nc1nc(C)nc2c(N3CCOCC3)c(=O)n(C3(CF)CC3)cc12)c1cccc(C(F)F)c1F [Example 90] ? 16.7

Tell me the measured IC50 of Cc1nc(N[C@H](C)c2cccc(C(F)F)c2F)c2cn(C3(CF)CC3)c(=O)c(N3CCN(CC#N)CC3)c2n1 [Example 134] , please. 49.1

Given the compound Cc1nc(N[C@H](C)c2cccc(C(F)(F)C(C)(C)C#N)c2)c2cn(C3(CF)CC3)c(=O)cc2n1 [Example 6] , what is its reported IC50? 112

So what does the record say about IC50 for Cc1nc(N[C@H](C)c2cccc(C(F)(F)F)c2C)c2cn(C3(CF)CC3)c(=O)c(N3CCO[C@H](C)C3)c2n1 [Example 85] ? 41

Endpoint output: IC50 of Cc1nc(N[C@H](C)c2cccc(C(F)F)c2F)c2cn(C3(CF)CC3)c(=O)c(Oc3ccnc(C#N)c3)c2n1 [Example 72] . Value? 72.4

Could you tell me which IC50 is on file for Cc1nc(N[C@H](C)c2cccc(C(F)F)c2F)c2cn(C3(CF)CC3)c(=O)c(-n3cc(C#N)cn3)c2n1 [Example 101] ? 50.1

====

A collection of molecules and their measured pIC50
# Test system: p-ERK pathway in H358 cells
# assayText: p-ERK pathway inhibition in H358 cells (Advanced phospho-ERK (Thr202/Tyr204) cellular kit, HTRF)
# Assay type: cell-based
# details: Homo sapiens, NCI-H358, 1 h compound incubation
Note on pIC50: it is the negative log10 of concentration, concentration in mol/L.

// lookup pIC50 for Cc1nc(N[C@H](C)c2cccc(C(F)F)c2F)c2cn(C3(CF)CC3)c(=O)c(N3CCC(C)(O)CC3)c2n1 7.72

State the recorded pIC50 for this entry: [2H]C1([2H])COC[C@H](C)N1c1c(=O)n(C2(CF)CC2)cc2c(N[C@H](C)c3cccc(C(F)F)c3F)nc(C)nc12 7.51

Which pIC50 value belongs to Cc1nc(N[C@H](C)c2cccc(C(F)F)c2F)c2cn(C3(CF)CC3)c(=O)c(N3CCC(C)(C#N)CC3)c2n1 ? 7.01

Could you tell me which pIC50 is on file for Cc1nc(N[C@H](C)c2cccc(C(F)F)c2F)c2cn(C3(CF)CC3)c(=O)c(OC(C)C)c2n1 ? 7.16

Return reported pIC50; argument: Cc1nc(N[C@H](C)c2cccc(C(F)F)c2F)c2cn(C3(CF)CC3)c(=O)c(-c3cnc4cnn(C)c4c3)c2n1 6.90

So what's the measured pIC50 for this one? Cc1nc(N[C@H](C)c2cccc(C(F)F)c2F)c2cn(C3(CF)CC3)c(=O)c(N3CC(C)(C#N)C3)c2n1 6.77

Name the recorded pIC50 for Cc1nc(N[C@H](C)c2cccc(C(F)F)c2F)c2cn(C3(CF)CC3)c(=O)c(N3CCOCC3(C)C)c2n1 . 7.38

Reported pIC50 for Cc1nc(N[C@H](C)c2cccc(C(F)F)c2F)c2cn(C3(CF)CC3)c(=O)c(N3CCN(C(C)C)CC3)c2n1 : what is it? 7.22

If you can, please state the reported pIC50 value of CC(=O)N1CCC(Oc2c(=O)n(C3(CF)CC3)cc3c(N[C@H](C)c4cccc(C(F)F)c4F)nc(C)nc23)CC1 . 6.99

Item under review: Cc1nc(N[C@H](C)c2cccc(C(F)F)c2F)c2cn(C3(CF)CC3)c(=O)c(N=S(C)(C)=O)c2n1 . Reported pIC50? 7.08

So what's the measured pIC50 for this one? COC1(C)CCN(c2c(=O)n(C3(CF)CC3)cc3c(N[C@H](C)c4cccc(C(F)F)c4F)nc(C)nc23)CC1 7.22

Hello, the source for this data is patent EP4417607A1, in case you need it.
